target: Nitric oxide synthase 1 (Rattus norvegicus, UniProt P29476, D597N)
Sequence (P29476 whole entry D597N): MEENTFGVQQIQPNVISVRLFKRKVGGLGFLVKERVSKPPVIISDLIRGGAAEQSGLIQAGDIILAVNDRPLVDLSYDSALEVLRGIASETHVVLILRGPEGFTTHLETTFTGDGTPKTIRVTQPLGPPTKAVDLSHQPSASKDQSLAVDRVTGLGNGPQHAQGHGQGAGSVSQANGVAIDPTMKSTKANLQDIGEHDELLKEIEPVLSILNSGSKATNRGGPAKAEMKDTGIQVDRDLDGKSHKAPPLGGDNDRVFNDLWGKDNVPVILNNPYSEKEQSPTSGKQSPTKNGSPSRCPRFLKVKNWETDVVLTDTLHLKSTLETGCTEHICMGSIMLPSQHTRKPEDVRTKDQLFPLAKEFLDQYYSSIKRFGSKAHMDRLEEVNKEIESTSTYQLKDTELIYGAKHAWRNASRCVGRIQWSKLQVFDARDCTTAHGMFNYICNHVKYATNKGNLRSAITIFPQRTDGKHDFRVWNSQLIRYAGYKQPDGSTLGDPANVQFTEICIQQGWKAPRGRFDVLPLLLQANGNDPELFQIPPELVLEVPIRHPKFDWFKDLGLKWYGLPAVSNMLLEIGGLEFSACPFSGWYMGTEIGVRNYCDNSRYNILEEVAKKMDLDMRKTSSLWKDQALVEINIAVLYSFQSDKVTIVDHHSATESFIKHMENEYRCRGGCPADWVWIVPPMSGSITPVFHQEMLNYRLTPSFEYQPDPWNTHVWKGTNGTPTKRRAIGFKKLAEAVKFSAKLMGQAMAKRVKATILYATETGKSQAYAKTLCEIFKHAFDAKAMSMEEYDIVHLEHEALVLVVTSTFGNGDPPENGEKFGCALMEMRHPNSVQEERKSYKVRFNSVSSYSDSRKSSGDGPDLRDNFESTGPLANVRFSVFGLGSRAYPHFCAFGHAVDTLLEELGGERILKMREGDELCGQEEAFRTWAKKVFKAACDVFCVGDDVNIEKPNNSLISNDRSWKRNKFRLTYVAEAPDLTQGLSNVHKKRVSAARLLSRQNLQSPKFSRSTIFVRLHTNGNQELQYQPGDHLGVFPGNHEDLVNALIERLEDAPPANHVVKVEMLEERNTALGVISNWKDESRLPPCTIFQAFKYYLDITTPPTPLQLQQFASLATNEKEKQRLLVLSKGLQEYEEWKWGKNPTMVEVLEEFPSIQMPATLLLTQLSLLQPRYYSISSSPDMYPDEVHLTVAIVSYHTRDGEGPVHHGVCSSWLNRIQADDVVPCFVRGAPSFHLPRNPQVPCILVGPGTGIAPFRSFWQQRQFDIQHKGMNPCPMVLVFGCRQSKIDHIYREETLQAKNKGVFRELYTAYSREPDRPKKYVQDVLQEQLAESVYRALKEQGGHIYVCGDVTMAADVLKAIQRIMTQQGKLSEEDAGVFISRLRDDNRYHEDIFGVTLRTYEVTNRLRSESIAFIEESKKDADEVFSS
Property name: pKi
Conceptually, pKi converts a concentration in mol/L into minus its log10.

Problem: Find pKi (Nitric oxide synthase 1 (Rattus norvegicus, UniProt P29476, D597N)) for the entry Cc1cc(N)nc2cc(-c3cccc(CN)c3)ccc12.Cl.Cl
Solution: 6.38

---

experiment: in vitro; conditions: human, liver microsomes, pH 7.4
Property name: remaining at 1 h, 1.426 µM (%)
Record the value in %, omitting the unit from your answer.

Problem: Would you mind telling me what remaining at 1 h, 1.426 µM value was observed for Cc1cc(N)nc2cc(-c3cccc(CN)c3)ccc12.Cl.Cl ?
Solution: 67

---

assay: in vitro; settings: human, liver microsomes
Property name: half-life at 1 h, 1.426 µM

Problem: Would you mind telling me what half-life at 1 h, 1.426 µM value was observed for Cc1cc(N)nc2cc(-c3cccc(CN)c3)ccc12.Cl.Cl ?
Solution: > 1 h

---

test: in vitro; conditions: human, liver microsomes
Property name: remaining at 1 h, 1.426 µM (%)
Record the value in %, omitting the unit from your answer.

Problem: Would you mind telling me what remaining at 1 h, 1.426 µM value was observed for Cc1cc(N)nc2cc(-c3cccc(CN)c3)ccc12.Cl.Cl ?
Solution: 87

---

assay: in vitro; conditions: human, liver microsomes
Property name: CLint scaled at 1 h, 1.426 µM (mL/min/kg)
Record the value in mL/min/kg, omitting the unit from your answer.

Problem: Would you mind telling me what CLint scaled at 1 h, 1.426 µM value was observed for Cc1cc(N)nc2cc(-c3cccc(CN)c3)ccc12.Cl.Cl ?
Solution: 8

---

target: Nitric oxide synthase, inducible (Homo sapiens, UniProt P35228)
Sequence (P35228 whole entry): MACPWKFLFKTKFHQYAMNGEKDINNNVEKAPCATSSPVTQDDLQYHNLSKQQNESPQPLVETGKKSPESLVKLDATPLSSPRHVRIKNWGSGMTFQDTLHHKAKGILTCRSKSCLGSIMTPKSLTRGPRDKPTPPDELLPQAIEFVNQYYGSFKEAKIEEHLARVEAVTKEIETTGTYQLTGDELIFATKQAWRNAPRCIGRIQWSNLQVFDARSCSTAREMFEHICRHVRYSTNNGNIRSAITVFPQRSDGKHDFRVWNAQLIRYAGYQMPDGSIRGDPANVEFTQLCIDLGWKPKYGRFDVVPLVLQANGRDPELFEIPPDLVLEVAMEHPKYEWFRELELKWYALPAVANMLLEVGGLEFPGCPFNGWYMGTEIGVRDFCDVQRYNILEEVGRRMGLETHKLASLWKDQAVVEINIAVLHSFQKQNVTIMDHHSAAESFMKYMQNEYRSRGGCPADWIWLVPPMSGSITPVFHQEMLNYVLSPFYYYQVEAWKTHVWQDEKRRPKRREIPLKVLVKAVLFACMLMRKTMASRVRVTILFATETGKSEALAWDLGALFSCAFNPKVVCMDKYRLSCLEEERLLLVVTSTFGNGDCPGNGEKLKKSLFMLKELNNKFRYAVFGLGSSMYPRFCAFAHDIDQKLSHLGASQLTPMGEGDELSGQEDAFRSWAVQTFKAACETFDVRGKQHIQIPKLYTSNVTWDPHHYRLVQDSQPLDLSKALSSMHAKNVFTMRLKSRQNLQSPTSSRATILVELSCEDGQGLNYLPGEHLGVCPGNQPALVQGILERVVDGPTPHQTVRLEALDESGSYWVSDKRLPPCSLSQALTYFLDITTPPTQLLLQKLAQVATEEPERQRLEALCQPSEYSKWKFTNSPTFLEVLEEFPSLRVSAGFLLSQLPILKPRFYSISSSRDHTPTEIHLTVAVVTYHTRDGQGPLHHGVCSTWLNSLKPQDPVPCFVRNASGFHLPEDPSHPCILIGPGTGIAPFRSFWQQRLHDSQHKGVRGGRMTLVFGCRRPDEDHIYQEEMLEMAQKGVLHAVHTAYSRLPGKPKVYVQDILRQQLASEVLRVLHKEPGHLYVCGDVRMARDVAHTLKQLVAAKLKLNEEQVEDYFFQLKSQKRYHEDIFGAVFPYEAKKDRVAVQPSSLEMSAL
Property name: pKi
Conceptually, pKi converts a concentration in mol/L into minus its log10.

Problem: Find pKi (Nitric oxide synthase, inducible (Homo sapiens, UniProt P35228)) for the entry Cc1cc(N)nc2cc(-c3cccc(CN)c3)ccc12.Cl.Cl
Solution: 4.52

Attribution: ChEMBL document CHEMBL4342518
